Ref: patent US20190153103A1

Molecular target: T1, hBMPR1B-Fc (human BMPR1B extracellular domain, residues K14 to R126, fused to human IgG2 Fc) (human, UniProt O00238 14-126); also: unit not given here
T1 construct: also called BMPR1B fused to human Fc fragment; not shown: human IgG2 Fc protein
T1 sequence: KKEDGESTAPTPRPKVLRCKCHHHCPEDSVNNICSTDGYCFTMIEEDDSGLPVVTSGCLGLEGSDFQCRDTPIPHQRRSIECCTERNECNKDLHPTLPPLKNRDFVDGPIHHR
Test: ELISA
Observed property: ELISA
Please respond with just the number, no unit label.

Looking for the measured ELISA of SC91.9 (murine anti-BMPR1B antibody) (antibody, V domains shown, Murine hybridoma antibody) VH: QVQLQQPGAELVKPGASVKLSCKASGYTFISYWMHWVKQRPGQGLEWIGMIHPNSGSTNYNESFKSKATLTVDKSSSTAYMQLSSLTSEDSAVYYCARDLLIATVVVTPYFAYWGQGTILTVSS VL: DIQMTQTTSSLSASLGDRVTISCRASQDISNFLNWYQQKPDGTIKFLIYYTSRLHSGVPSRFSGSGSGTDYSLTIRNLEQEDIATYFCQQGNTLPYTFGGGTKLEIK , can you help?
0.551

Then what about the binder SC91.19 (antibody, V domains shown) VH: QIQLVQSGPELKKPGETVKISCKASGYTFTTYGMNWVKQAPGKGLKWMGWINTYSGVPSSANDFKGRFAFSLETSASTAYLQINNLKNEDTATYFCARSELRNWYFDVWGTGTTVTVSS VL: SFVMTQTPKFLLVSAGDRVTITCKASQSVGNDVAWYQQKPGQSPKLLIYYASNRYTGVPDRFTGSGYGTDFTFTISTVQAEDLAVYFCQQDYSSPFTFGSGTKLEMK ?
0.737

Then what about the binder SC91.11 (antibody, V domains shown) VH: QVQLQQPGAELVKPGASVKLSCKASGYTFTTYWMHWVKQRPGRGLEWIGRIDPNSGGTKYNEKFKSKATLTVDKPSSTACMQLSSLTSEDSAVYYCASRRGDIDVWGTGTTVTVSS VL: DIVMTQSQKFMSTSVGDRVSVTCKASQNVGTNVFWYQQKPGQSPKALIYAASYRYSGVPDRFTGSGSGTDFTLTISNVQSEDLADYFCQQYDSYPLTFGDGTKLELR ?
0.387
